details: 298.15 K; 101.33 kPa; Liquid; Vibrating tube method
Answer each item with its documented mass density.
Lab book: enter the figure in kg/m3, no units written.

Query block: Given the molecule CCCCCCCCC , what is its reported mass density?
Result block: 713.91

Query block: For CCCCCCC then?
Result block: 679.71

Query block: Param item: CCCCCCCC
Result block: 698.51

Query block: Then what about the molecule CCCCCCCCCC ?
Result block: 726.05

====

conditions: 303.15 K; 101.33 kPa; Liquid; Vibrating tube method
I'd be grateful if you could share measured mass density for these entries.
Give the value, in units of kg/m3, as a plain number.

Query block: Find the recorded mass density belonging to CCCCCCC and report it.
Result block: 675.47

Query block: Field entry: CCCCCCCC
Result block: 694.48

Query block: Consider next the molecule CCCCCCCCCC in the same way.
Result block: 722.28

Query block: Moving on to CCCCCCCCC
Result block: 710.03

====

conditions: 298.15 K; 101.33 kPa; Liquid; Falling or rolling sphere viscometry
parameter_measured: viscosity (mPa·s)
Field: numeric (mPa·s). Do not append units.

Query block: // returns reported viscosity for input CCCCCCCCCC [decane]
Result block: 0.852

Query block: What about this molecule? CCCCCCCC [octane]
Result block: 0.523

Query block: Field entry: CCCCCCCCC [nonane]
Result block: 0.669

Query block: Now consider CCCCCCC [heptane] .
Result block: 0.393

====

Task for the reader: assign each of the following compounds its reported viscosity.
conditions: 308.15 K; 101.33 kPa; Liquid; Falling or rolling sphere viscometry
Give the value in mPa·s but do not write mPa·s after it.

Query block: Given the compound CCCCCCCC , what is its reported viscosity?
Result block: 0.473

Query block: For CCCCCCCCC then?
Result block: 0.594

Query block: Next up: CCCCCCCCCC
Result block: 0.747

Query block: Next entry: CCCCCCC
Result block: 0.362

====

conditions: 303.15 K; 101.33 kPa; Liquid; Falling or rolling sphere viscometry
parameter_measured: viscosity (mPa·s)
Report the value in mPa·s with no unit label.

Query block: Returns the measured viscosity for the input compound. Input: CCCCCCC [heptane]
Result block: 0.377

Query block: Same question for CCCCCCCCC [nonane] please.
Result block: 0.63

Query block: Similarly, CCCCCCCC [octane] ?
Result block: 0.496

Query block: And the next one, CCCCCCCCCC [decane] ?
Result block: 0.797

====

details: 338.15 K; 101.33 kPa; Liquid; Vibrating tube method
Give measured mass density for each item. Keep answers brief.
Write it as a number; the unit kg/m3 goes unstated.

Query block: Request the reported mass density associated with CCCCCCCCCC
Result block: 695.48

Query block: CCCCCCCCC , same question.
Result block: 682.31

Query block: For CCCCCCCC then?
Result block: 665.55

Query block: Try this molecule too: CCCCCCC
Result block: 644.84

====

details: 343.15 K; 101.33 kPa; Liquid; Vibrating tube method
Task for the reader: assign each of the following compounds its reported mass density.
Give just the number in kg/m3; leave the unit off.

Query block: Looking for the measured mass density of CCCCCCCC [octane] , can you help?
Result block: 661.28

Query block: What do you get for CCCCCCCCC [nonane] ?
Result block: 678.26

Query block: Then this compound: CCCCCCC [heptane]
Result block: 640.29

Query block: Try the compound CCCCCCCCCC [decane]
Result block: 691.59
